assay.system: Grb2 SH2 (UniProt P62993)
method: SH2 binding enrichment of the phosphorylated peptide, bacterial display (enrichment ratio); higher = better substrate or ligand; peptides without Tyr show the background;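 further: peptide library displayed on the E. coli surface as eCPX fusions, selected cells deep-sequenced, score is each peptide's frequency after selection divided by its frequency in the input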
experimental.readout: SH2 binding enrichment

Some sequences with recorded SH2 binding enrichment:
| ordered.residues | SH2 binding enrichment |
| --- | --- |
| ADDSFYTARSA [ZAP70_Y493_YF] | 0.883 |
| KEAALYPHLLP [SQSTM1_Y383_P387L] | 0.87 |

[1] SSSNPYSTVTV [ACTN2_Y599_M604V]
[2] QRPFVYFFSFL [PTEN_Y176_R173P_YF]
Task: I'm curious whether 1 or 2 has the smaller SH2 binding enrichment number. Which is it? # reply format: chosen label
Result: 1
